- Method: Toxicity liver stage against HepG2, at 10uM
- Format: cell-based
- Design: test concentration 10 uM, cell line HepG2-A16-CD81EGFP
- Protocol Conditions: human, HepG2-A16-CD81EGFP cells; read-out: INHIBITION
Listing of recorded cytotoxicity at 10 µM by entry.
Kindly answer with a numeric value in %, unit omitted.

// cytotoxicity at 10 µM value for "OCCn1cc(CN2CCN(CCOc3ccccc3)CC2)cn1" : -8.43

// cytotoxicity at 10 µM value for "CN(C)CCN1CCO[C@H]2CN(C(=O)c3ccsc3)C[C@H]21" : 3

// cytotoxicity at 10 µM value for COc1ccc(-c2noc(CN3CCOCC3C)n2)cc1OC (stereo unspecified) : -7.3

---

- Method: Toxicity liver stage against HepG2, at 10uM
- Assay type: cell-based
- Set-up: test concentration 10 uM, cell line HepG2-A16-CD81EGFP
- Protocol Conditions: human, HepG2-A16-CD81EGFP cells; read-out: INHIBITION
Listing of recorded cytotoxicity at 10 µM by entry.

Field: example entries. Status: answers known.
# Compound, Measured
measured = [
    ("Cn1cnnc1C1CCCN(C(=O)NCCc2ccccn2)C1 (centres undefined)", "-21.5%"),
    ("CCc1ccc2nc(-c3cnn(C)c3)cc(C(=O)N3CCOCC3)c2c1", "-2.96%"),
]

// cytotoxicity at 10 µM value for Cc1cc(-c2cnn(CCNC(=O)C3CCCO3)c2C2CC2)on1 (centres undefined) : -4.07%

// cytotoxicity at 10 µM value for CCn1cc2c(n1)CN(Cc1ccc(C)o1)CC2COCC1CC1 (centres undefined) : -80.7%

---

Listing of recorded cytotoxicity at 10 µM by entry.
- Method: Toxicity liver stage against HepG2, at 10uM
- Assay type: cell-based
- Parameters: test concentration 10 uM, cell line HepG2-A16-CD81EGFP
- Protocol Conditions: human, HepG2-A16-CD81EGFP cells; read-out: INHIBITION
Kindly answer with a numeric value in %, unit omitted.

// cytotoxicity at 10 µM value for "COc1ccc(-c2n[nH]cc2CN(C)CCCN2CCOCC2)c(F)c1" : -2.26

// cytotoxicity at 10 µM value for CC1CC(=O)c2cc(C(=O)N3CCN(C)CC3)c(=O)[nH]c2C1 (stereo not given) : -6.32

// cytotoxicity at 10 µM value for "CC(C)CN1CCC(NC(=O)N(C)Cc2csc3ccccc23)CC1" : -52.9

---

Listing of recorded cytotoxicity at 10 µM by entry.
- Method: Toxicity liver stage against HepG2, at 10uM
- Format: cell-based
- Parameters: test concentration 10 uM, cell line HepG2-A16-CD81EGFP
- Protocol Conditions: human, HepG2-A16-CD81EGFP cells; read-out: INHIBITION
Kindly answer with a numeric value in %, unit omitted.

Field: example entries. Status: answers known.
# Molecule, cytotoxicity at 10 µM / %
rows = [
    ("CN(c1ccc(Cl)c(C(=O)NCCCN2CCOCC2)c1)S(C)(=O)=O", 1.05),
    ("CNc1nc(CNC(=O)Nc2cccc(COCCOC(C)C)c2)cs1", 8.77),
    ("COc1cc(C(C)=O)ccc1SCC(=O)Nc1ccccn1", 11.7),
    ("CC(C)[C@H]1COC(=O)N1Cc1nccn1C(C)C", 6.35),
    ("Cc1cc(NC(=O)N2CCOCC2)nn1-c1cccc(Cl)c1", -1.57),
]

// cytotoxicity at 10 µM value for "O=C(COc1coc(CN2CCCCC2)cc1=O)Nc1ccccc1Cl" : 3.72

// cytotoxicity at 10 µM value for Fc1cnc(NCC2Cn3nnc(-c4ccccc4)c3CO2)nc1 (stereo not drawn) : -64.7

// cytotoxicity at 10 µM value for "Cc1cc(N2CCC(N(C)C(=O)Nc3ccccc3)CC2)nc(C)n1" : -19.4

// cytotoxicity at 10 µM value for O=C1CC(NS(=O)(=O)c2ccc3ccccc3c2)CN1 (stereo not drawn) : 3.94

// cytotoxicity at 10 µM value for "O=C(CN1CCc2ccccc2C1)NCc1cc2n(n1)CCCNC2" : 2.22

// cytotoxicity at 10 µM value for "CC(C)OCCN1CCN(C(=O)c2cccc(-n3cccn3)n2)CC1" : -3.88

// cytotoxicity at 10 µM value for "Cc1c(C(=O)N2CCC(c3nc(C)n4ccsc34)CC2)cnn1C" : -4.41

// cytotoxicity at 10 µM value for COc1cc(C2c3c(n[nH]c3C)N=C3COC(=O)C32)cc2c1OCO2 (stereo not drawn) : 87.7

// cytotoxicity at 10 µM value for "CN1C(=O)C2(CCN(Cc3nccn3C)CC2)c2ccccc21" : 1.49

// cytotoxicity at 10 µM value for "O=C(NCc1ccco1)[C@@H]1COC[C@H]2CN(c3ncc(F)cn3)C[C@H]21" : -5.67

// cytotoxicity at 10 µM value for "Cc1c(I)cccc1C(=O)NCc1nnc[nH]1" : -2.86
